Quick record: pIC50, Sodium-dependent serotonin transporter (Rattus norvegicus).
Please report pIC50 as the negative decimal logarithm of the molar concentration, giving only the number.

Problem: May I ask what pIC50 has been recorded for OC1(c2ccccc2)C2CCC1CN(Cc1ccccc1)C2 (configuration not stated) ?
Solution: 5.51

Problem: I would be grateful if you could share the reported pIC50 for c1ccc(CN2CC3CCC(C2)C3OC(c2ccccc2)c2ccccc2)cc1 (stereo in doubt; 17a) .
Solution: 5.00

Problem: Please give the measured pIC50 for this compound: OC1(c2ccc(Cl)cc2)C2CCC1CN(Cc1ccccc1)C2 (configuration not stated)
Solution: 6.00

Problem: Given the entry CN1CC2CCC(C1)C2c1ccc(Cl)cc1 (configuration not stated) , report its measured pIC50.
Solution: 6.66

Problem: Query: pIC50; subject: CN1CC2CCC(C1)C2c1ccccc1 (configuration not stated)
Solution: 5.73

Problem: Which pIC50 value is on record for c1ccc(C2C3CCC2CNC3)cc1 (configuration not stated) ?
Solution: 5.40

Problem: Look at this compound and give its reported pIC50. Clc1ccc(C2C3CCC2CNC3)cc1 (configuration not stated)
Solution: 6.44

Problem: Given the entry Clc1ccc(C2C3CCC2CN(Cc2ccccc2)C3)cc1 (configuration not stated) , report its measured pIC50.
Solution: 6.40

Problem: Which pIC50 reading was recorded for the compound c1ccc(CN2CC3CCC(C2)C3c2ccccc2)cc1 (stereo in doubt; 8a) ?
Solution: 5.46
